Test: Renal clearance compared to Cilastatin evaluated in Rhesus monkeys at the dose of 10 mg/kg by iv bolus injection
Assay type: ADME, organism-based, Kidney
Design: dose 10 mg/kg, route intravenous
Conditions: cercopithecidae, in vivo, read-out: Renal clearance
measured_property: CL renal (mL/min/kg)
Reply with just the number (in mL/min/kg).

Input: Request the reported CL renal associated with C[C@@H](O)[C@H]1C(=O)N2C(C(=O)O)=C(SCCN=CN)C[C@H]12 [IMIPENEM ANHYDROUS]
Output: 5.44

----------
Biological target: UniProt:Q7DHH4
Sequence (Q7DHH4 whole entry): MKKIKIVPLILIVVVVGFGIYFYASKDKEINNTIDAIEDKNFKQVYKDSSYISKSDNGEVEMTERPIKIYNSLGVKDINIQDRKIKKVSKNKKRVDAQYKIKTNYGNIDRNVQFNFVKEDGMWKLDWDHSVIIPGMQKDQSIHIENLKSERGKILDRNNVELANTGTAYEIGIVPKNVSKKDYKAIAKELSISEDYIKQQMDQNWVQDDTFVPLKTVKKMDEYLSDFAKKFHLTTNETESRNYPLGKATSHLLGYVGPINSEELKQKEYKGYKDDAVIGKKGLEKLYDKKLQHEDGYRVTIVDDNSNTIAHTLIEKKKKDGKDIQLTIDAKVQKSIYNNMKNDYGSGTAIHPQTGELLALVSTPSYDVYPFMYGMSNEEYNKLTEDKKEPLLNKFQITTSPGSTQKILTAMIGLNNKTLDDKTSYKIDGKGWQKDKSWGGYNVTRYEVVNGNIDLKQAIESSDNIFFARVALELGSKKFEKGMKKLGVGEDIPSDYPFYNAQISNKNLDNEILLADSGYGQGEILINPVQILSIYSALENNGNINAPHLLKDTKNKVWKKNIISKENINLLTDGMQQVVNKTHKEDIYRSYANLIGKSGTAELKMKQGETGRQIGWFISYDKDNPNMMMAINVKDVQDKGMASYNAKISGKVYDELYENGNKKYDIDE
Test: Binding affinity against PBP2a receptor by competition analysis with [3H]benzylpenicillin using cell membrane fractions from the MRSA COL strain.
measured_property: pIC50
pIC50 (log units): -log10 of the concentration in mol/L.

| smiles_string | readout_value |
| --- | --- |
| C[C@@H](O)[C@H]1C(=O)N2C(C(=O)O)=C(c3ccc4c(c3)-c3ccc(C[N+]56CC[N+](CC(=O)Nc7cccc(C(N)=O)c7)(CC5)CC6)cc3C4=O)[C@H](C)[C@H]12.[Cl-].[Cl-] | 5.91 |
| CC(C)NC(=O)C[N+]12CC[N+](Cc3ccc4c(c3)C(=O)c3ccc(C5=C(C(=O)O)N6C(=O)[C@H]([C@@H](C)O)[C@H]6[C@H]5C)cc3-4)(CC1)CC2.[Cl-].[Cl-] | 5.91 |

Attention now turns to another entry.
Input: Request the reported pIC50 associated with C[C@@H](O)[C@H]1C(=O)N2C(C(=O)O)=C(c3ccc4c(c3)-c3ccc(C[N+]56CC[N+](CC(=O)Nc7ccccn7)(CC5)CC6)cc3C4=O)[C@H](C)[C@H]12.[Cl-].[Cl-]
Output: 6.37

----------
Biological target: MecA (Staphylococcus aureus, UniProt Q7DHH4)
Sequence (Q7DHH4 whole entry): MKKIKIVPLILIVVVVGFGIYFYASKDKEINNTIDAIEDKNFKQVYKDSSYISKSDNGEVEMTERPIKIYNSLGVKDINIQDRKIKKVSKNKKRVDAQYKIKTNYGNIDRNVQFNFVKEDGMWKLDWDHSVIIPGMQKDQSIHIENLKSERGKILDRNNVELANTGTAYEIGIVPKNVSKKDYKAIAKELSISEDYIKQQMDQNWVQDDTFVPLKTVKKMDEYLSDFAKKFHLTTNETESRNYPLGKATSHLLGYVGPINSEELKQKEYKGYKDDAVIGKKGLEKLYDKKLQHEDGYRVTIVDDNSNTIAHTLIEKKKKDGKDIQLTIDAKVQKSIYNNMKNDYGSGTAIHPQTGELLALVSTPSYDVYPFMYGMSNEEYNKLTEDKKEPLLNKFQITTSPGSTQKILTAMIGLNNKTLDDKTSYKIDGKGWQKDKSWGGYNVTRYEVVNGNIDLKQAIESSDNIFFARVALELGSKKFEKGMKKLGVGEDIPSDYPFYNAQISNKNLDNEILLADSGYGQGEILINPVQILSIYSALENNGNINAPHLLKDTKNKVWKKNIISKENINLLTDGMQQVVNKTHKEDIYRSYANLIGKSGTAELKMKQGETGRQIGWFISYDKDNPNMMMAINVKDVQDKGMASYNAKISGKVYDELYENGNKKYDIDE
Experiment: Binding affinity against PBP2a receptor by competition analysis with [3H]benzylpenicillin using cell membrane fractions from the MRSA COL strain.
pIC50: −log10 of the molar value.
Rule: pIC50 under 6 gives F, otherwise T.

| smiles_string | classification |
| --- | --- |
| C[C@@H](O)[C@H]1C(=O)N2C(C(=O)[O-])=C(c3ccc4c(c3)-c3ccc(C[N+]56CC[N+](CC(N)=O)(CC5)CC6)cc3C4=O)C[C@H]12.[Cl-] | T |

Let us examine a further case.
Input: Dear colleague, could you confirm whether C[C@@H](O)[C@H]1C(=O)N2C(C(=O)O)=C(c3ccc4c(c3)-c3ccc(C[N+]56CC[N+](CC(=O)Nc7ccc(C(N)=O)cc7)(CC5)CC6)cc3C4=O)[C@H](C)[C@H]12.[Cl-].[Cl-] has pIC50 at or above 6?
Output: F
